Source: PubChem BioAssay (EPA / NIEHS)

assayedTarget: human Thyroid Receptor alpha (THRa1), THRA (gene 7067) (UniProt P10827)
Sequence (P10827 whole entry, looked up): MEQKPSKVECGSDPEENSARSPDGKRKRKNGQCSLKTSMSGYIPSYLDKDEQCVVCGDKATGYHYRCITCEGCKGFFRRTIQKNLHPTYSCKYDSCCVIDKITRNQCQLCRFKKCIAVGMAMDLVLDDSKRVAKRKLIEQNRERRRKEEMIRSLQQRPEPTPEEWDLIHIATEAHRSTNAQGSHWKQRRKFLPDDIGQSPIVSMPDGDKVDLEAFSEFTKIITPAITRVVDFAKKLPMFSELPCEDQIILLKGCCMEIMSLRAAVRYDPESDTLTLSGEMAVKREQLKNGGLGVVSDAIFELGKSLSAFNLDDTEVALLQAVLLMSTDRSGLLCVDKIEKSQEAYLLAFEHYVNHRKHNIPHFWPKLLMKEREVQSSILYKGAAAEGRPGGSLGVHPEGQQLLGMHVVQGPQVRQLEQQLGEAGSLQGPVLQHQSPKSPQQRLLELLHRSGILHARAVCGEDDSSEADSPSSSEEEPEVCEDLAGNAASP
protocolNotes: ATG_THRa1_TRANS: Attagene TRANS-FACTORIAL HepG2 Assay for human Thyroid Receptor alpha (THRa1) (AID 2283014)
Results filed as inconclusive are left out. The source made the active and inactive calls. The calls were made as follows: active = hit-call score of the fitted dose curve at least 0.9, where 1 is the maximum; inconclusive = response in the unintended direction; inactive = score below 0.9.
Outcome field: choose from 1 = active, -1 = inactive

# compound, labelClass
measured = [
    ("C[C@@H](Oc1ccc(CNC(=O)c2cccnc2Oc2ccc3c(c2)OCO3)c(F)c1)C(=O)O", -1),
    ("OCCC(F)(F)C(F)(F)C(F)(F)C(F)(F)F", -1),
    ("O=C(NO)C1(NS(=O)(=O)c2ccc(Oc3ccc(F)cc3)cc2)CCOCC1", -1),
    ("CC(C)CCCCCCOC(=O)C1CCCCC1C(=O)OCCCCCCC(C)C (centres undefined)", -1),
    ("CC[C@H](C)C(=O)O[C@H]1C[C@H](O)C=C2C=C[C@H](C)[C@H](CC[C@@H](O)C[C@@H](O)CC(=O)O)[C@H]21", -1),
]

INPUT: Each compound tested received a call. Report the one for Cc1ncc([C@@H](CCCCCCc2ccc3c(n2)NCCC3)CC(=O)O)cn1 .
OUTPUT: -1

INPUT: Field: outcome | Entry: OCC(CO)(CO)CO
OUTPUT: -1

INPUT: What is the recorded call for this compound in the test? Cc1nccn1-c1ccc(Sc2cccc(C3(C(N)=O)CCOCC3)c2)cc1
OUTPUT: -1

INPUT: Identify the outcome logged in this assay for the compound shown: O=c1[nH]cnc2c1ncn2[C@H]1CC[C@@H](CO)O1
OUTPUT: -1

INPUT: Entry c1ccc2cc3ccccc3cc2c1 : call = ?
OUTPUT: -1

INPUT: Any idea what this test logged for COc1cc2c(c(OC)c1OC)-c1ccc(OC)c(=O)cc1[C@@H](NC(C)=O)CC2 ?
OUTPUT: -1

INPUT: Record lookup: outcome of this test for O=C(N[C@H](CO)[C@H](O)c1ccc([N+](=O)[O-])cc1)C(Cl)Cl ?
OUTPUT: -1

INPUT: Which outcome did this test record for the compound CC(C)C(=O)Nc1ccc([N+](=O)[O-])c(C(F)(F)F)c1 ?
OUTPUT: 1

INPUT: What did the test return for S=P(N1CC1)(N1CC1)N1CC1 ?
OUTPUT: -1

INPUT: Given O=S(=O)(O)c1ccc(N=Nc2c(O)ccc3cc(S(=O)(=O)O)ccc23)cc1 , state the outcome it received in this test.
OUTPUT: -1

INPUT: Record request — test call for CCCCCCCCCCCCCCCCOS(=O)(=O)O
OUTPUT: -1

INPUT: In this assay, the call recorded for O=C1CN(N=Cc2ccc([N+](=O)[O-])o2)C(=O)N1 was what?
OUTPUT: -1

INPUT: Called result for NNC(=O)c1ccncc1
OUTPUT: -1

INPUT: Which outcome was assigned to CCn1nc(C)c2c1C(=O)NCC(c1ccc(O)cc1)=N2 in this test?
OUTPUT: -1

* * *

protocolNotes: ATG_ISRE_CIS: Attagene CIS-FACTORIAL HepG2 Assay for human Interferon Regulatory Factor 1 (IRF1) binding to an Interferon-Stimulated Response Element (ISRE) (AID 2282948)
conditionSummary: HepG2 ISRE cis-reporter (Attagene), mRNA transcription readout; actives raise or lower the signal
Description: ATG_CIS is a cell-based, multiplexed-readout assay that uses HepG2, a human liver cell line, with measurements taken at 24 hours after chemical dosing in a 24-well plate.ATG_ISRE_CIS is one of 52 assay component(s) measured or calculated from the ATG_CIS assay. […] This assay endpoint, ATG_ISRE_CIS, was analyzed with bidirectional fitting relative to DMSO as the negative control and baseline of activity. […]
The source made the active and inactive calls. Rule for the calls: active = hit-call score of the fitted dose curve at least 0.9, where 1 is the maximum; inactive = score below 0.9.
Entry note: the call must match one of active, inactive

Illustrative cases are given below, each with its answer.
# compound, labelClass
rows = [
    ("CC(=O)c1ccccc1", "inactive"),
    ("OC(CCl)CCl", "inactive"),
]

INPUT: For this compound, state the assay outcome: Cn1c(=O)c2[nH]cnc2n(C)c1=O
OUTPUT: inactive

INPUT: Name the outcome recorded for CC(C)CC(C)O (configuration not stated) in the assay.
OUTPUT: inactive
